Value source: patent US20260055118A1

# PROCEDURE SUMMARY: Uncaging quantum yield determination relative to BODIPY reference
# Format: physicochemical
# APPLIED CONDITIONS: calculated from the disappearance of the target conjugate; green light irradiation

| MOLECULE | Φdeg, degradation quantum yield |
| --- | --- |
| CC(OC(=O)Cc1ccccc1)C1=C2C=CC(=[N+]3CCCC3)C=C2C(C)(C)c2cc(N3CCCC3)ccc21.[I-] (stereo not shown) | 2.2% |
| CC(OC(=O)Cc1ccccc1)c1c2ccc(=[N+]3CCCC3)cc-2oc2cc(N3CCCC3)ccc12.[I-] (stereo not shown) | 1.9% |
| CC[N+]1=c2cc3c(cc2C(C)CC1(C)C)=C(C(C)OC(=O)Cc1ccccc1)c1cc2c4c(c1C3(C)C)CCCN4CCC2 (stereo not shown) | 2.6% |
| CCc1c2c(nc3ccc(OC(=O)N(C)CCN(C)C(=O)OC(C)c4c5ccc(=[N+]6CCCC6)cc-5oc5cc(N6CCCC6)ccc45)cc13)-c1cc3c(c(=O)n1C2)COC(=O)C3(O)CC.[I-] (mixture of isomers) | 0.15% |
| CC(OC(=O)N1CCN(c2ccccc2)CC1)C1=C2C=CC(=[N+]3CCCC3)C=C2C(C)(C)c2cc(N3CCCC3)ccc21 (stereo not shown) | 1.7% |
| CC(OC(=O)Oc1ccccc1)C1=C2C=CC(=[N+]3CCCC3)C=C2C(C)(C)c2cc(N3CCCC3)ccc21.[I-] (stereo not shown) | 25% |
| CC(OC(=O)Cc1ccccc1)c1c2ccc(=O)cc-2oc2cc(N3CCCC3)ccc12 (stereo not shown) | 6.2% |
